# Test system: 695427-040-R-J1-PDC complex spheroids, viability percent T/C;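 note: spheroids exposed to compounds for seven days before readout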
# MEASUREMENT PROTOCOL: Anticancer human tumor 695427-040-R-J1-PDC patient-derived colon adenocarcinoma cell line growth inhibition [GQUAD]
# PROTOCOL CONDITIONS: second compound 0.0316 µM; first compound 0.0316 µM; hits give low values
ENDPOINT: viability, T/C (%)
Give the number; % is assumed, so skip it.

Q: GET /values?readout=viability, T/C&system=695427-040-R-J1-PDC complex spheroids, viability percent T/C&item= CC1COCCN1c1cc(C2(S(C)(=N)=O)CC2)nc(-c2ccnc3[nH]ccc23)n1 (stereo not given) + CN(C)c1ccc(Nc2c3ccc(NC(=O)CCN4CCCC4)cc3nc3cc(NC(=O)CCN4CCCC4)ccc23)cc1;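 note: spheroids exposed to compounds for seven days before readout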
Result: 104

Q: Also CC(C)(O)C1CCC(Nc2ccc3ncc(-c4cccc(C(F)(F)F)c4)n3n2)CC1 (stereo not given) + Cc1cnc(CNC(=O)c2c(=O)c3ccc(N4CCCN(C)CC4)nc3n3c2sc2ccccc23)cn1 ?
Result: 82.1

Q: Also check COc1cc(C2c3cc4c(cc3C(OC3OC5COC(C)OC5C(O)C3O)C3COC(=O)C23)OCO4)cc(OC)c1O (stereo not given) + CN(C)c1ccc(Nc2c3ccc(NC(=O)CCN4CCCC4)cc3nc3cc(NC(=O)CCN4CCCC4)ccc23)cc1
Result: 108

Q: Another compound to check: Cc1[nH]c2ccccc2c1CCNCc1ccc(/C=C/C(=O)NO)cc1 + Cc1[nH]c2ccc(F)cc2c1-c1nc2c3cccnc3c3ncccc3c2[nH]1
Result: 102

Q: Try the compound COc1ccc([C@@H](O)c2cc(-c3ncnc4cc(N5CCOCC5)ccc34)c(F)cc2Cl)nn1 + Cc1[nH]c2ccc(F)cc2c1-c1nc2c3cccnc3c3ncccc3c2[nH]1
Result: 105

Q: And the next one, Cc1[nH]c2ccccc2c1CCNCc1ccc(/C=C/C(=O)NO)cc1 + CN(C)c1ccc(Nc2c3ccc(NC(=O)CCN4CCCC4)cc3nc3cc(NC(=O)CCN4CCCC4)ccc23)cc1 ?
Result: 101

Q: Repeat for the following compound: CCc1c2c(nc3ccc(O)cc13)-c1cc3c(c(=O)n1C2)COC(=O)[C@]3(O)CC + Cc1[nH]c2ccc(F)cc2c1-c1nc2c3cccnc3c3ncccc3c2[nH]1
Result: 57.8

Q: // repeat for C#Cc1c(F)ccc2cc(O)cc(-c3ncc4c(N5CC6CCC(C5)N6)nc(OCC56CCCN5CC(F)C6)nc4c3F)c12 (stereo not given) + Cc1cnc(CNC(=O)c2c(=O)c3ccc(N4CCCN(C)CC4)nc3n3c2sc2ccccc23)cn1 and report
Result: 103

Q: COc1cc(C2c3cc4c(cc3C(OC3OC5COC(C)OC5C(O)C3O)C3COC(=O)C23)OCO4)cc(OC)c1O (stereo not given) + Cc1cnc(CNC(=O)c2c(=O)c3ccc(N4CCCN(C)CC4)nc3n3c2sc2ccccc23)cn1 , same question.
Result: 87.3

Q: Next record, please: CC[C@@]1(O)C(=O)OCc2c1cc1n(c2=O)Cc2cc3c(CN(C)C)c(O)ccc3nc2-1 + Cc1[nH]c2ccc(F)cc2c1-c1nc2c3cccnc3c3ncccc3c2[nH]1
Result: 71.5

Q: Try this compound next: CCCS(=O)(=O)Nc1ccc(F)c(C(=O)c2c[nH]c3ncc(-c4ccc(Cl)cc4)cc23)c1F + Cc1cnc(CNC(=O)c2c(=O)c3ccc(N4CCCN(C)CC4)nc3n3c2sc2ccccc23)cn1
Result: 101

Q: Please give the result for CC(=O)O[C@H]1C(=O)[C@@]2(C)[C@H]([C@H](OC(=O)c3ccccc3)[C@]3(O)C[C@H](OC(=O)[C@H](O)[C@@H](NC(=O)c4ccccc4)c4ccccc4)C(C)=C1C3(C)C)[C@]1(OC(C)=O)CO[C@@H]1C[C@@H]2O + CN(C)c1ccc(Nc2c3ccc(NC(=O)CCN4CCCC4)cc3nc3cc(NC(=O)CCN4CCCC4)ccc23)cc1 too.
Result: 98.5

Q: Now this one: C=CCn1c(=O)c2cnc(Nc3ccc(N4CCN(C)CC4)cc3)nc2n1-c1cccc(C(C)(C)O)n1 + CN(C)c1ccc(Nc2c3ccc(NC(=O)CCN4CCCC4)cc3nc3cc(NC(=O)CCN4CCCC4)ccc23)cc1
Result: 104

Q: Query COc1cccc2c1C(=O)c1c(O)c3c(c(O)c1C2=O)CC(O)(C(=O)CO)CC3OC1CC(N)C(O)C(C)O1 (stereo not given) + Cc1[nH]c2ccc(F)cc2c1-c1nc2c3cccnc3c3ncccc3c2[nH]1 next
Result: 98.6

Q: Would you kindly repeat that for O=C(NO)c1cnc(N2CCN(S(=O)(=O)c3ccc4ccccc4c3)CC2)nc1 + Cc1cnc(CNC(=O)c2c(=O)c3ccc(N4CCCN(C)CC4)nc3n3c2sc2ccccc23)cn1 ?
Result: 91.1

Q: How about this compound: O=c1[nH]cc(F)c(=O)[nH]1 + CN(C)c1ccc(Nc2c3ccc(NC(=O)CCN4CCCC4)cc3nc3cc(NC(=O)CCN4CCCC4)ccc23)cc1
Result: 101

Q: Similarly, O=C(c1cc(Cc2n[nH]c(=O)c3ccccc23)ccc1F)N1CCN(C(=O)C2CC2)CC1 + Cc1[nH]c2ccc(F)cc2c1-c1nc2c3cccnc3c3ncccc3c2[nH]1 ?
Result: 97.7

Q: Would you kindly repeat that for CC[C@@]1(O)C(=O)OCc2c1cc1n(c2=O)Cc2cc3c(CN(C)C)c(O)ccc3nc2-1 + CN(C)c1ccc(Nc2c3ccc(NC(=O)CCN4CCCC4)cc3nc3cc(NC(=O)CCN4CCCC4)ccc23)cc1 ?
Result: 100

Q: Now try Cc1cccc(N(C)C(=O)C2C(O)CCN2c2nc(C)cc(C(F)(F)F)c2C#N)c1 (stereo not given) + Cc1[nH]c2ccc(F)cc2c1-c1nc2c3cccnc3c3ncccc3c2[nH]1 .
Result: 109

Q: Try CC(C)n1c(=O)n(C)c2cnc3cc(F)c(-c4ccc(OCCCN5CCCCC5)nc4)cc3c21 + CN(C)c1ccc(Nc2c3ccc(NC(=O)CCN4CCCC4)cc3nc3cc(NC(=O)CCN4CCCC4)ccc23)cc1 next.
Result: 113

Each recorded value in this set is attributed to PubChem BioAssay AID2060492.
